targetOrTestSystem: recombinant human PrP (rhPrP, PrP^C) (Homo sapiens, UniProt P04156)
experimentalDetails: biochemical
Format: binding
pKd: −log10 of the molar value.
valueType: pKd

>  <structureSmiles>
Cc1cc(Nc2ccc(NC(=O)c3ccc(Nc4ccnc5ccccc45)cc3)cc2)nc(N)n1

>  <targetOrTestSystem>
recombinant human PrP (rhPrP, PrP^C) (Homo sapiens, UniProt P04156)

>  <recordedNumber>
5.79

$$$$

Hey, just so you know, these numbers are from paper PMC6804459.
